EXPERIMENT: Tissue distribution of Compound A in mice with mammary C/16 adenocarcinomas (first method: liver, heart, kidney, lung, spleen, tumor)
Assay type: in vivo, C3H/HeN female mice
EXPERIMENTAL SETUP: mouse, tumor/plasma, iv, dose 15.4; 0.75 h; single mice, MEAN=b373; read-out: Tumor/Plasma Ratio
OBSERVED PROPERTY: Kp at 0.75 h
Please give the numeric answer without any surrounding text.

Exercise: Output Kp at 0.75 h of CC(=O)O[C@H]1C(=O)[C@]23C[C@H]2C[C@H]2OC[C@@]2(OC(C)=O)[C@H]3[C@H](OC(=O)c2ccccc2)[C@]2(O)C[C@H](OC(=O)[C@H](O)[C@@H](NC(=O)OC(C)(C)C)c3ccccc3)C(C)=C1C2(C)C [Compound A]
Key: 1.75

----------
EXPERIMENT: Tissue distribution of Compound A in mice with mammary C/16 adenocarcinomas (first method: liver, heart, kidney, lung, spleen, tumor)
Assay type: in vivo, C3H/HeN female mice
EXPERIMENTAL SETUP: mouse, liver/plasma, iv, 40 mg/kg, 0.083 h; mice with tumors; single mice; read-out: Tissue/Plasma Ratio, LIVER
OBSERVED PROPERTY: Kp at 0.083 h
Number, no unit, nothing else.

Exercise: Return Kp at 0.083 h for the following compound: `CC(=O)O[C@H]1C(=O)[C@]23C[C@H]2C[C@H]2OC[C@@]2(OC(C)=O)[C@H]3[C@H](OC(=O)c2ccccc2)[C@]2(O)C[C@H](OC(=O)[C@H](O)[C@@H](NC(=O)OC(C)(C)C)c3ccccc3)C(C)=C1C2(C)C`
Key: 3.07

----------
EXPERIMENT: Tissue distribution of Compound A in mice with mammary C/16 adenocarcinomas (first method: liver, heart, kidney, lung, spleen, tumor)
Assay type: in vivo, C3H/HeN female mice
EXPERIMENTAL SETUP: mouse, spleen, iv, 40 mg/kg; read-out: t 1/2, Spleen (converted)
OBSERVED PROPERTY: half-life

Exercise: Hello, please tell me recorded half-life for this one: `CC(=O)O[C@H]1C(=O)[C@]23C[C@H]2C[C@H]2OC[C@@]2(OC(C)=O)[C@H]3[C@H](OC(=O)c2ccccc2)[C@]2(O)C[C@H](OC(=O)[C@H](O)[C@@H](NC(=O)OC(C)(C)C)c3ccccc3)C(C)=C1C2(C)C`
Key: 7.5 h

----------
EXPERIMENT: Tissue distribution of Compound A in mice with mammary C/16 adenocarcinomas (first method: liver, heart, kidney, lung, spleen, tumor)
Type: in vivo, C3H/HeN female mice
EXPERIMENTAL SETUP: mouse, kidney, iv, 40 mg/kg, 40 mg/kg i.v.; read-out: half-life of the distribution phase, kidney (converted)
OBSERVED PROPERTY: half-life (min)
Numeric answer only, unit min assumed.

Exercise: Specify reported half-life for the molecule shown: `CC(=O)O[C@H]1C(=O)[C@]23C[C@H]2C[C@H]2OC[C@@]2(OC(C)=O)[C@H]3[C@H](OC(=O)c2ccccc2)[C@]2(O)C[C@H](OC(=O)[C@H](O)[C@@H](NC(=O)OC(C)(C)C)c3ccccc3)C(C)=C1C2(C)C`
Key: 3

----------
EXPERIMENT: Tissue distribution of Compound A in mice with mammary C/16 adenocarcinomas (first method: liver, heart, kidney, lung, spleen, tumor)
Assay type: in vivo, C3H/HeN female mice
EXPERIMENTAL SETUP: mouse, tumor/plasma, iv, 40 mg/kg, 1 h; mice with tumors; single mice; read-out: Tissue/Plasma Ratio, TUMOR
OBSERVED PROPERTY: Kp at 1 h
Kindly provide the number alone.

Exercise: Let me know recorded Kp at 1 h for `CC(=O)O[C@H]1C(=O)[C@]23C[C@H]2C[C@H]2OC[C@@]2(OC(C)=O)[C@H]3[C@H](OC(=O)c2ccccc2)[C@]2(O)C[C@H](OC(=O)[C@H](O)[C@@H](NC(=O)OC(C)(C)C)c3ccccc3)C(C)=C1C2(C)C` , thanks.
Key: 0.95

----------
EXPERIMENT: Brain distribution of Compound A in mice with mammary C/16 adenocarcinomas (second method, brain tissue)
Type: in vivo, C3H/HeN female mice
EXPERIMENTAL SETUP: mouse, brain/plasma, iv, 40 mg/kg, 1 h; 40 μg/kg [sic]; single mice; read-out: RATIO BRAIN/PLASMA
OBSERVED PROPERTY: Kp at 1 h
The reply should be a number, written without any unit.

Exercise: Give a short answer stating reported Kp at 1 h for `CC(=O)O[C@H]1C(=O)[C@]23C[C@H]2C[C@H]2OC[C@@]2(OC(C)=O)[C@H]3[C@H](OC(=O)c2ccccc2)[C@]2(O)C[C@H](OC(=O)[C@H](O)[C@@H](NC(=O)OC(C)(C)C)c3ccccc3)C(C)=C1C2(C)C` .
Key: 1.42

----------
EXPERIMENT: Brain distribution of Compound A in mice with mammary C/16 adenocarcinomas (second method, brain tissue)
Assay type: in vivo, C3H/HeN female mice
EXPERIMENTAL SETUP: mouse, brain, iv, 40 mg/kg, 14 h; 40 μg/kg [sic]; single mice; read-out: Brain CONC.
OBSERVED PROPERTY: concentration at 14 h

Exercise: Note down concentration at 14 h recorded for CC(=O)O[C@H]1C(=O)[C@]23C[C@H]2C[C@H]2OC[C@@]2(OC(C)=O)[C@H]3[C@H](OC(=O)c2ccccc2)[C@]2(O)C[C@H](OC(=O)[C@H](O)[C@@H](NC(=O)OC(C)(C)C)c3ccccc3)C(C)=C1C2(C)C [Compound A]
Key: 8570 ng/g

----------
EXPERIMENT: Plasma kinetics of Compound A after i.v. injection in mice (HPLC)
Type: in vivo, C3H/HeN female mice
EXPERIMENTAL SETUP: mouse, plasma, iv; dose = 40 mg/kg; read-out: t 1/2, Plasma (converted)
OBSERVED PROPERTY: half-life (h)
Form entry: value (h) — number only.

Exercise: Give reported half-life value for `CC(=O)O[C@H]1C(=O)[C@]23C[C@H]2C[C@H]2OC[C@@]2(OC(C)=O)[C@H]3[C@H](OC(=O)c2ccccc2)[C@]2(O)C[C@H](OC(=O)[C@H](O)[C@@H](NC(=O)OC(C)(C)C)c3ccccc3)C(C)=C1C2(C)C`
Key: 4.4

----------
EXPERIMENT: Plasma kinetics of Compound A after i.v. injection in mice (HPLC)
Assay type: in vivo, C3H/HeN female mice
EXPERIMENTAL SETUP: mouse, plasma, iv; dose = 40 mg/kg
Procedure: Mammary C/16 adenocarcinomas were implanted in C3H/HeN female mice. […] The body weight and date of implantation were recorded for each mouse. […] The plasma and tissue samples were then analyzed for the concentration of Compound A. The plasma was assayed by high pressure liquid chromatography with spectrophotometric detection. For the tissue, liver, heart, kidney, lung, spleen and tumor tissue, samples were assayed by a first method, while a second method was used for the brain tissue analyzed. […]
OBSERVED PROPERTY: AUC(0-t) at 4 h (ng·h/mL)
Numbers only here, please. The scale is ng·h/mL.

Exercise: Respond only with AUC(0-t) at 4 h recorded for `CC(=O)O[C@H]1C(=O)[C@]23C[C@H]2C[C@H]2OC[C@@]2(OC(C)=O)[C@H]3[C@H](OC(=O)c2ccccc2)[C@]2(O)C[C@H](OC(=O)[C@H](O)[C@@H](NC(=O)OC(C)(C)C)c3ccccc3)C(C)=C1C2(C)C`
Key: 35000

----------
EXPERIMENT: Brain distribution of Compound A in mice with mammary C/16 adenocarcinomas (second method, brain tissue)
Format: in vivo, C3H/HeN female mice
EXPERIMENTAL SETUP: mouse, brain, iv, 40 mg/kg, 0.25 h; 40 μg/kg [sic]; single mice; read-out: Brain CONC.
OBSERVED PROPERTY: concentration at 0.25 h (ng/g)
Give just the number in ng/g; leave the unit off.

Exercise: Give a short answer stating reported concentration at 0.25 h for CC(=O)O[C@H]1C(=O)[C@]23C[C@H]2C[C@H]2OC[C@@]2(OC(C)=O)[C@H]3[C@H](OC(=O)c2ccccc2)[C@]2(O)C[C@H](OC(=O)[C@H](O)[C@@H](NC(=O)OC(C)(C)C)c3ccccc3)C(C)=C1C2(C)C [Compound A] .
Key: 13200

----------
EXPERIMENT: Brain distribution of Compound A in mice with mammary C/16 adenocarcinomas (second method, brain tissue)
Format: in vivo, C3H/HeN female mice
EXPERIMENTAL SETUP: mouse, brain/plasma, iv, 40 mg/kg, 0.25 h; 40 μg/kg [sic]; single mice; read-out: RATIO BRAIN/PLASMA
OBSERVED PROPERTY: Kp at 0.25 h
Lab note: record just the number, no unit beside it.

Exercise: Tell us which Kp at 0.25 h value is on record for `CC(=O)O[C@H]1C(=O)[C@]23C[C@H]2C[C@H]2OC[C@@]2(OC(C)=O)[C@H]3[C@H](OC(=O)c2ccccc2)[C@]2(O)C[C@H](OC(=O)[C@H](O)[C@@H](NC(=O)OC(C)(C)C)c3ccccc3)C(C)=C1C2(C)C`
Key: 0.6
